src = ChEMBL document CHEMBL1201862

Tested on: HL-60
Experiment: NCI tumour cell line growth inhibition, 48 h
Active and inactive are the calls of the source. Cut-off read from the data, not from the text of the source: active = GI50 up to about 1.1 µM and inactive = higher.
readoutType: GI50

Data request: Look up and report measured GI50 for this entry: Nc1ncnc2c1ncn2CC(O)C(=O)O (stereo unspecified)
Data returned: > 100 µM (inactive)

Data request: Look up and report measured GI50 for this entry: CSc1ccc(C2OC(=O)c3ccccc32)c2ccccc12 (stereo unspecified)
Data returned: 61.2 µM (inactive)

Data request: Look up and report measured GI50 for this entry: CCOC(=O)NC(C(F)(F)F)(C(F)(F)F)P(=O)(OCC)OCC
Data returned: 65.2 µM (inactive)

Data request: Look up and report measured GI50 for this entry: CC1(C)Cc2c(C#N)c(N)c3c(c2CO1)C(=O)OC3=O
Data returned: > 100 µM (inactive)

Data request: Look up and report measured GI50 for this entry: COC1(OC)C2(Cl)C3=CCCC=C3C1(Cl)C(Cl)=C2Cl
Data returned: 13.9 µM (inactive)

Data request: Look up and report measured GI50 for this entry: CCSc1nc2cccc([N+](=O)[O-])c2n1CC
Data returned: > 100 µM (inactive)

----------
Tested on: RPMI-8226
Assay: NCI tumour cell line growth inhibition, 48 h
The source made the active and inactive calls. Cut-off read from the data, not from the text of the source: active = GI50 up to about 1.1 µM and inactive = higher.
A correct response names exactly one class from active, inactive

Data request: Each compound tested received a call. Report the one for CSc1nnc(SC)nn1 .
Data returned: inactive

Data request: Each compound tested received a call. Report the one for O=C(O)c1ccc(C(O)(c2ccccc2)c2ccccc2)cc1 .
Data returned: inactive

Data request: Each compound tested received a call. Report the one for COC(=O)C(C(=O)C(=O)Nc1cccc(C)c1)C1=NC(N)SS1 (centres undefined) .
Data returned: inactive

Data request: Each compound tested received a call. Report the one for CC(=O)n1nc(-c2ccccc2)n(/N=C/c2ccc([N+](=O)[O-])cc2)c1=O .
Data returned: inactive

Data request: Each compound tested received a call. Report the one for CC(=O)OCC1OC(N2C(=O)CC(N)=Nc3ccccc32)C(OC(C)=O)C(OC(C)=O)C1OC(C)=O (centres undefined) .
Data returned: inactive

Data request: Each compound tested received a call. Report the one for CN(C)/C(=N/C(=S)Nc1ccccc1)SCc1ccccc1 .
Data returned: inactive

Data request: Each compound tested received a call. Report the one for CNC(=O)CN1CC(=O)N(C)C(=O)C1 .
Data returned: inactive

Data request: Each compound tested received a call. Report the one for CCOc1ccccc1/N=N/c1c(-c2ccccc2)nn(C(=O)CC(=O)Nc2cccc(C)c2)c1-c1ccccc1 .
Data returned: inactive

Data request: Each compound tested received a call. Report the one for CSc1nnnc2ccccc12 .
Data returned: inactive

Data request: Each compound tested received a call. Report the one for Cc1c(N2C(=O)/C(=C/C=C/c3ccccc3)N=C2c2ccccc2)c(=O)n(-c2ccccc2)n1C .
Data returned: inactive

Data request: Each compound tested received a call. Report the one for CC1(C)OC2[C@@H](CO[C@@]3([C@H]4OC(C)(C)O[C@@H]4CO)OC(C)(C)O[C@@H]23)O1 (some centres undefined) .
Data returned: inactive

Data request: Each compound tested received a call. Report the one for Cc1c2c(n(CC(c3ccccc3)c3ccccc3)c1C)NN=C(C#N)S2(=O)=O .
Data returned: inactive

Data request: Each compound tested received a call. Report the one for CCN(CC)CCCNc1nncc2cc3c([nH]c4ccc(OC)cc43)c(C)c12 .
Data returned: inactive

Data request: Each compound tested received a call. Report the one for COc1cc(/C=C2\C(=O)N(C(=O)c3ccc(NC(C)=O)cc3)N=C2C)ccc1O .
Data returned: inactive

Data request: Each compound tested received a call. Report the one for Cc1cn(S(=O)(=O)c2ccccc2)c2c(OCc3ccccc3)cc(NS(C)(=O)=O)cc12 .
Data returned: inactive

Data request: Each compound tested received a call. Report the one for CCOC(=O)c1c(N2CCOCC2)ncn(-c2cccc(Cl)c2)c1=O .
Data returned: inactive

Data request: Each compound tested received a call. Report the one for CC(C)CCS(=O)(=O)OCCCCOS(=O)(=O)CCC(C)C .
Data returned: inactive

Data request: Each compound tested received a call. Report the one for COc1ccc(C(=O)CC(=O)C(=O)Nc2ccc(C)c(C)c2)cc1 .
Data returned: inactive

Data request: Each compound tested received a call. Report the one for O=C(c1no[n+]([O-])c1C(=O)c1csc2ccccc12)c1csc2ccccc12 .
Data returned: active

Data request: Each compound tested received a call. Report the one for O=C1C(=C(I)I)c2ccccc2-c2ccccc21 .
Data returned: active

Data request: Each compound tested received a call. Report the one for O=C(/C=C/c1ccccc1Cl)c1ccccc1Cl .
Data returned: inactive

Data request: Each compound tested received a call. Report the one for C=CO/N=[N+](\[O-])N(CC)CC .
Data returned: inactive

Data request: Each compound tested received a call. Report the one for S=C(Nc1ccc(/N=N/c2ccccc2)cc1)SCc1ccccc1 .
Data returned: inactive

Data request: Each compound tested received a call. Report the one for N#CC1(C#N)C(c2ccc(C3C(C#N)(C#N)C3(C#N)C#N)cc2)C1(C#N)C#N .
Data returned: inactive

Data request: Each compound tested received a call. Report the one for c1ccc(OCc2nnc3n2N=C(c2ccccc2)CS3)cc1 .
Data returned: inactive

Data request: Each compound tested received a call. Report the one for Clc1ccc(-c2c(C3=NCCCN3)nnn2-c2ccc(Cl)cc2)cc1 .
Data returned: inactive

Data request: Each compound tested received a call. Report the one for CCCCn1c(C)c2c(c1C)C(=O)N(CCN1CCN(c3ccccc3Cl)CC1)C2=O .
Data returned: inactive

Data request: Each compound tested received a call. Report the one for COc1ccc(Oc2ccccc2N)cc1 .
Data returned: inactive

Data request: Each compound tested received a call. Report the one for c1ccc2c(c1)ncn2C1CCCCO1 (centres undefined) .
Data returned: inactive

Data request: Each compound tested received a call. Report the one for [N-]=[N+]=Nc1c(-c2ccccc2)c(=O)n(-c2ccccc2)c2ccccc12 .
Data returned: inactive

Data request: Each compound tested received a call. Report the one for C=CCNc1nc2c(N)ncnc2s1 .
Data returned: inactive

Data request: Each compound tested received a call. Report the one for COc1ccc2c(c1)-c1nc(=S)n(CCCN(C)C)c3ccc([N+](=O)[O-])c(c13)N2 .
Data returned: active

Data request: Each compound tested received a call. Report the one for O/N=C1/C(=C/c2ccc(Cl)cc2)CCCC1C(NO)c1ccc(Cl)cc1 (centres undefined) .
Data returned: inactive

Data request: Each compound tested received a call. Report the one for COC(=O)C(C)(/N=C/c1ccccc1)c1ccccc1 (centres undefined) .
Data returned: inactive

Data request: Each compound tested received a call. Report the one for C/C(=C/CNc1ncnc2c1ncn2CCC#N)CO .
Data returned: inactive

Data request: Each compound tested received a call. Report the one for [O-][Cl+3]([O-])([O-])[O-].[O-][Cl+3]([O-])([O-])[O-].c1ccn2c(N3CCCC3)[n+]3c4ccccc4n4c(N5CCCC5)[n+]5ccccc5c4c3c2c1 .
Data returned: inactive

Data request: Each compound tested received a call. Report the one for CN(CC(=O)O)Cc1c[nH]c2ccccc12 .
Data returned: inactive

Data request: Each compound tested received a call. Report the one for COC(C(=O)NCCCCNC(=O)C(OC)c1ccccc1)c1ccccc1 (centres undefined) .
Data returned: inactive

Data request: Each compound tested received a call. Report the one for Cc1ccnc(Nc2[nH]c(C(=O)c3ccc(Cl)cc3)c(N)c2C(=S)Nc2ccccc2)c1 .
Data returned: inactive

Data request: Each compound tested received a call. Report the one for CCCCc1ccc(-n2sc3ncc(-c4ccccc4)cc3c2=O)cc1 .
Data returned: inactive

Data request: Each compound tested received a call. Report the one for C/C(=N/NC(=S)N1CCCCCC1)c1cccc(/C(C)=N\NC(=S)N2CCCCCC2)n1 .
Data returned: inactive

Data request: Each compound tested received a call. Report the one for Cc1ccc2c(c1C)CC1(Cc3c(C)ccc(C)c3C1=O)C2=O (centres undefined) .
Data returned: inactive

Data request: Each compound tested received a call. Report the one for O=c1c(Nc2ccccc2)cn(CCOc2ccccc2)c(=O)n1CCOc1ccccc1 .
Data returned: inactive

Data request: Each compound tested received a call. Report the one for C=CCSC1=N/C(=C\c2ccc(C)cc2)C(=O)N1CC=C .
Data returned: inactive
